target: Ubiquitin-conjugating enzyme E2 N (Homo sapiens); type: functional;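 also: Dose-response confirmation in a TR-FRET assay detecting UBC13-driven polyubiquitin chain formation, inhibition measured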
Sequence (P61088 whole entry): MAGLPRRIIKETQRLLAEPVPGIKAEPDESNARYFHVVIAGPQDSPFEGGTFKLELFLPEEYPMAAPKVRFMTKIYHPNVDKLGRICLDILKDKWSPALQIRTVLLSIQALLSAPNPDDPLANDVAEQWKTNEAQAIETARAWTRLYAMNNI
Activity calls are given as the source filed them.
Outcomes you can answer with include only these: 1 (yes) (active), 0 (no) (inactive)

Record excerpt, results attached:
INSERT INTO assay_data (compound, assigned_label) VALUES
  ('CN(C)CCCNc1nc2sc3c(c2c(=O)n1CCc1ccccc1)CCCCC3', '0 (no)'),
  ('Cc1ccnc(NCc2c(O)ccc3ccccc23)c1', '0 (no)');

In the following, a different compound is considered.
Please let me know the test result on file for COc1ccc2sc(N(CCCN(C)C)C(=O)c3ccc(S(=O)(=O)N4CCc5ccccc5C4)cc3)nc2c1 . 1 (yes)

* * *

Would you kindly list AC50 for each of these molecules?
molecular target: Paired box protein Pax-8 (Homo sapiens); test: inhibitors of PAX8-driven TPO luciferase reporter, dose response, RMG-I cells, cherry-pick (AID 687027); type: functional, cell-based;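 also: luciferase reporter driven by Pax8 target thyroperoxidase promoter measured by SteadyGlo luminescence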
Sequence (Q06710 whole entry): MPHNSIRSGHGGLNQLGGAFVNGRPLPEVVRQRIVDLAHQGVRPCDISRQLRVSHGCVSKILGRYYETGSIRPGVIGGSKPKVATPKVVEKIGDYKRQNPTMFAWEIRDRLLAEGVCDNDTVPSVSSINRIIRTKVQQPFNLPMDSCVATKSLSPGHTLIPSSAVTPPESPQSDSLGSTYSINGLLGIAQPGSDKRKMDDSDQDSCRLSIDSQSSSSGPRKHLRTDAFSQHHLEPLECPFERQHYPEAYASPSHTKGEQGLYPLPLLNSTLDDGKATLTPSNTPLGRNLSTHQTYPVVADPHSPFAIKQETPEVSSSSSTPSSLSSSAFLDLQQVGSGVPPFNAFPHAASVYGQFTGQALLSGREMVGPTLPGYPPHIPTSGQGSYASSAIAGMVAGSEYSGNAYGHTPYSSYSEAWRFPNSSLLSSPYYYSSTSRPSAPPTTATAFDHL
Active and inactive are the calls of the source.

Here are 2 molecules together with their reported answers.
INSERT INTO results (molecule_smiles, system, experimental_readout, observed_measurement) VALUES
  ('COc1ccc(S(=O)(=O)Nc2ccc3c(c2)C(=O)N([C@@H](C)CO)C[C@H](C)[C@@H](CN(C)Cc2ccc(C(F)(F)F)cc2)OCCCC[C@H](C)O3)cc1', 'Paired box protein Pax-8 (Homo sapiens)', 'AC50', '6.83 µM (active)'),
  ('Oc1ccc(C[C@H]2CN([C@@H](Cc3ccc(O)cc3)CN3CCC[C@@H]3CN3C(=S)NC[C@@H]3Cc3ccccc3)C(=S)N2CC2CCCCCC2)cc1', 'Paired box protein Pax-8 (Homo sapiens)', 'AC50', '9.27 µM (active)');

We next turn to a different molecule, shown below.
Which measured AC50 value corresponds to C[C@@H]1CN([C@H](C)CO)C(=O)c2cc(NS(=O)(=O)c3ccccc3)ccc2O[C@@H](C)CCCCO[C@@H]1CN(C)Cc1ccc(Cl)c(Cl)c1 ? 4.44 µM (active)

* * *

biological target: Major prion protein (Homo sapiens, UniProt P04156); type: functional, cell-based
The source made the active and inactive calls.
Experimental readout: IC50

Return reported IC50 values for all items listed beneath this line.
1. O=C(O)c1cc(-c2cccs2)nc2ccc(Br)cc12
2. CCC1(CC)Cc2ccccc2-c2nc(S)nc(O)c21
3. CCc1nc(SCC(=O)NNC(=O)c2ccc(C)cc2)c2ccccc2n1
4. CC(Sc1ccc2ccccc2n1)C(=O)O (centres undefined)

1: 1.41 µM (active); 2: 3.08 µM (active); 3: 1.36 µM (active); 4: 1.88 µM (active)

* * *

target: Corticotropin-releasing factor receptor 2/Corticotropin-releasing factor-binding protein (Homo sapiens, UniProt P24387+Q13324); experiment: Dose Response confirmation of uHTS hits for small molecule antagonists of the CRF-binding protein and CRF-R2 receptor complex.; format: functional; settings: read-out: IC50_Mean
Sequence (Q13324 whole entry): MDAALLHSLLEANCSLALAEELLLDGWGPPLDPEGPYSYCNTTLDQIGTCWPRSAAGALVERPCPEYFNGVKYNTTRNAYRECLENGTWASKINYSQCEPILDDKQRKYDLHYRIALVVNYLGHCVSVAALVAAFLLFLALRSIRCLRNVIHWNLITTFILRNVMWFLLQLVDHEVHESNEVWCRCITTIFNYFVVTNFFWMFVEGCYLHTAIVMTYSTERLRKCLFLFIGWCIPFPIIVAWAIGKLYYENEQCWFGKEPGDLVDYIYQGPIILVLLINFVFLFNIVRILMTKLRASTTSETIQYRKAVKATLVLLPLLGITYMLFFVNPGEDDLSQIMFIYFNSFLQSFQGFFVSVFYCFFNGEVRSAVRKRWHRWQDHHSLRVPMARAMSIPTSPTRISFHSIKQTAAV
Sequence (P24387 whole entry): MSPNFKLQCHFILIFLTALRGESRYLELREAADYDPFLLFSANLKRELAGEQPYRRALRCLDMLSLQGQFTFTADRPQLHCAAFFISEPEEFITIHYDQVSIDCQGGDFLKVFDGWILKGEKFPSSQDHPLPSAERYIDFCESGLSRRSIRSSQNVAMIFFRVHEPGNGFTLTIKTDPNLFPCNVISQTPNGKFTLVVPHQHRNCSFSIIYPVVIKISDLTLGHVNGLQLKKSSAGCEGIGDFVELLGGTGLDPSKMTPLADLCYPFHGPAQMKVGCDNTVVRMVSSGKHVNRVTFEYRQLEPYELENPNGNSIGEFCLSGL
The source made the active and inactive calls.
Experimental readout: IC50

INSERT INTO results (compound, observed_measurement) VALUES
  ('Cc1ccc(-n2[nH]c(C)c(/C=N/Nc3ccc([N+](=O)[O-])cc3[N+](=O)[O-])c2=O)cc1', '6.1 µM (active)');

Return reported IC50 values for all items listed beneath this line.
1. CC(=O)NC(Cc1ccc(C(C)C)cc1)C(=O)NC1CCN(C(=O)c2cccc(C)c2)CC1 (stereo not given)
2. CCOC(=O)c1ccc(NC(=O)c2cccc3c2C(=O)N(CC2CCCO2)C3)cc1 (stereo not given)
3. Cc1c(Cl)ccc2c1NC(=O)C21NC(CCC(N)=O)[C@H]2C(=O)N(c3ccc(Cl)cc3)C(=O)[C@H]21 (stereo not given in full)
4. CCOc1ccccc1NC(=O)CNC(=O)Cc1ccccc1

1: 24.4 µM (active); 2: > 47.1 µM (inactive); 3: > 47.1 µM (inactive); 4: > 47.1 µM (inactive)

* * *

Would you kindly list EC50 for each of these compounds?
assay: growth suppression of PTEN-null colon cells, dose response, cell-based, HCT116 PTEN knockout (AID 1047); type: functional;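 also: HCT116 colon tumor cells with PTEN knocked out; cells exposed to compound for 60 hours before readout; potency for loss of cell viability measured by luminescence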
Calls of active or inactive are those of the source.

Here are 4 compounds together with their reported answers.
INSERT INTO results (compound, experimental_readout, observed_measurement) VALUES
  ('COc1ccc(C2c3c(oc4ccccc4c3=O)C(=O)N2c2ccccn2)cc1OC (stereo not given)', 'EC50', '17.2 µM (active)'),
  ('CCC1(c2ccc(F)cc2)NC(=O)N(CC(=O)Nc2ccc(-c3nc4ccc(C)cc4s3)cc2)C1=O (stereo not given)', 'EC50', '7.37 µM (active)'),
  ('O=C(Nc1nccs1)c1cccc(N2C(=O)c3cccc4c([N+](=O)[O-])ccc(c34)C2=O)c1', 'EC50', '3.77 µM (active)'),
  ('O=[N+]([O-])/C=C/c1cn(Cc2ccc(F)cc2)c2ccccc12', 'EC50', '15.2 µM (active)');

We next turn to a different compound, shown below.
Which measured EC50 value corresponds to N#C/C(=C\c1ccc([N+](=O)[O-])o1)c1nc2ccccc2[nH]1 ? 0.985 µM (active)

* * *

molecular target: UniProt:Q9GZV3; assay: CHT inhibitors, dose response, cell-based, 5-point CRC, membrane potential dye (AID 504840); assay type: functional
Sequence (Q9GZV3 whole entry): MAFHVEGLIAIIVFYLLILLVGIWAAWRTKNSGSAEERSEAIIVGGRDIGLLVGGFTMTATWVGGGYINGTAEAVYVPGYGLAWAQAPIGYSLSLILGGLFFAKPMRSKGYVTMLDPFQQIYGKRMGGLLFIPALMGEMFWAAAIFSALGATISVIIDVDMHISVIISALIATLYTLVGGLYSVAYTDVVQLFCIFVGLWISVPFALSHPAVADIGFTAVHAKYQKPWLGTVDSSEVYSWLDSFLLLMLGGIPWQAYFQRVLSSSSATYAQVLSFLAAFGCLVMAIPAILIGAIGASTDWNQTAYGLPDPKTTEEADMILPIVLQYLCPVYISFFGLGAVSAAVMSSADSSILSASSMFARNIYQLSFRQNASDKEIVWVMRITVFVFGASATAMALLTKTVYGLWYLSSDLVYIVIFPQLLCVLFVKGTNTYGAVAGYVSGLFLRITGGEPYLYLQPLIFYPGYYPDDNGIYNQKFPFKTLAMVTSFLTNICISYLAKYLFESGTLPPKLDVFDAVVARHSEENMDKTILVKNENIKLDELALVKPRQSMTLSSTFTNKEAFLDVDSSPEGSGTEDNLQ
Calls of active or inactive are those of the source.
Experimental readout: IC50

Here are 6 compounds together with their reported answers.
INSERT INTO measurements (compound, observed_measurement) VALUES
  ('O=C1CC(O)(C(F)(F)F)Oc2c1ccc1ccccc21 (stereo not drawn)', '12.9 µM (active)'),
  ('CCOc1ccc(/C=C2\SC(=S)N(NS(=O)(=O)c3ccccc3)C2=O)cc1OC', '5.37 µM (active)'),
  ('Cc1ccc(NC(S)=NNc2ccc([N+](=O)[O-])cc2S(=O)(=O)Nc2ccccc2C(=O)O)cc1C', '12.3 µM (active)'),
  ('COc1ccc(CSc2nc3nc(C)cc(C)n3n2)cc1F', '2.4 µM (active)'),
  ('COc1ccccc1CCNC(=O)c1ccc(OC)c(OC2CCN(C(C)C)CC2)c1', '13.5 µM (active)'),
  ('O=C(Nc1ccc(S(=O)(=O)NC2=NCCCCC2)cc1)c1ccc(Cl)cc1Cl', '7.42 µM (active)');

Return reported IC50 values for all items listed beneath this line.
1. COc1ccc(-c2csc(Cc3nnc4n3CCCCC4)n2)cc1
2. COc1ccccc1NS(=O)(=O)c1ccc(C)c(C(=O)NCC(c2ccco2)N2CCCCC2)c1 (stereo not drawn)

9.12 µM (active)
0.778 µM (active)

* * *

target: Cytochrome P450 3A4 (Homo sapiens);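 also: CYP3A4 tested as one member of a cytochrome P450 panel screen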
Sequence (P08684 whole entry): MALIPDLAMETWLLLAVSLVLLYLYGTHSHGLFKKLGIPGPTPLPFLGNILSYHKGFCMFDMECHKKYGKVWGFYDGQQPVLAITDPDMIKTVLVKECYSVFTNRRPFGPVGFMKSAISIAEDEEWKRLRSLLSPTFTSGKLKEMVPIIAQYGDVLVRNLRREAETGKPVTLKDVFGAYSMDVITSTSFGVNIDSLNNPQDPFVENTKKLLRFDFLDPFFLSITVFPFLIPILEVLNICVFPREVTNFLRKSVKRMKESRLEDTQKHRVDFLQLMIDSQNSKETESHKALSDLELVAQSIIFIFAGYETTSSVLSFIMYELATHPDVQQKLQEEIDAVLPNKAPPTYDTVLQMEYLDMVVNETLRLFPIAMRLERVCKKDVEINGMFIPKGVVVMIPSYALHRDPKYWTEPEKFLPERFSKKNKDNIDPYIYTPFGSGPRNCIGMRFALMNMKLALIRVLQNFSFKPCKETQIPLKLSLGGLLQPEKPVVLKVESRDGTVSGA
Would you kindly list AC50 for each of these compounds?

INSERT INTO assay_data (molecule_smiles, observed_measurement) VALUES
  ('O=C(CSc1nc2ccccc2c(=O)n1Cc1ccccc1)NCc1ccco1', '39.8 µM (inconclusive)'),
  ('C[C@@H]1C[C@H]2[C@H]3C[C@@H](F)C4=CC(=O)C=C[C@]4(C)[C@@]3(Cl)[C@@H](O)C[C@@]2(C)[C@@H]1C(=O)COC(=O)C(C)(C)C', '0.398 µM (inconclusive)'),
  ('Cc1nc(-c2cccc(NC(=O)c3cc4cc(Br)ccc4oc3=O)c2)cs1', '10 µM (inconclusive)'),
  ('O=C(Nc1ccc(OC(=O)c2cccnc2)cc1)c1cccnc1', '12.6 µM (inconclusive)'),
  ('Cc1ccc2occ(/C=C/C(=O)O)c(=O)c2c1', '22.4 µM (inconclusive)');

Return reported AC50 values for all items listed beneath this line.
1. CC1CCN(c2cc(N3CCC(C)CC3)c([N+](=O)[O-])cc2/C=C(\C#N)c2nn(-c3ccccc3)c(N)c2C#N)CC1
2. C=CCCCCCCCCC(=O)Nc1cnc(O)nc1O
3. COC(=O)[C@@H]1CC[C@H](C)[C@@H](c2ccc(C)cc2)N1C(=O)c1ccc(/C=N\O[C@@H](C)CN2CCCCc3nc(C)c(C)cc32)cc1
4. COc1ccc2nc(SCC(=O)Nc3ccc4c(c3)OCCO4)[nH]c2c1

1. 3.98 µM (inconclusive)
2. 10 µM (inconclusive)
3. 3.16 µM (inconclusive)
4. 6.31 µM (inconclusive)

* * *

Target: Protein RecA (Mycobacterium tuberculosis, UniProt P9WHJ3)
Sequence (P9WHJ3 whole entry): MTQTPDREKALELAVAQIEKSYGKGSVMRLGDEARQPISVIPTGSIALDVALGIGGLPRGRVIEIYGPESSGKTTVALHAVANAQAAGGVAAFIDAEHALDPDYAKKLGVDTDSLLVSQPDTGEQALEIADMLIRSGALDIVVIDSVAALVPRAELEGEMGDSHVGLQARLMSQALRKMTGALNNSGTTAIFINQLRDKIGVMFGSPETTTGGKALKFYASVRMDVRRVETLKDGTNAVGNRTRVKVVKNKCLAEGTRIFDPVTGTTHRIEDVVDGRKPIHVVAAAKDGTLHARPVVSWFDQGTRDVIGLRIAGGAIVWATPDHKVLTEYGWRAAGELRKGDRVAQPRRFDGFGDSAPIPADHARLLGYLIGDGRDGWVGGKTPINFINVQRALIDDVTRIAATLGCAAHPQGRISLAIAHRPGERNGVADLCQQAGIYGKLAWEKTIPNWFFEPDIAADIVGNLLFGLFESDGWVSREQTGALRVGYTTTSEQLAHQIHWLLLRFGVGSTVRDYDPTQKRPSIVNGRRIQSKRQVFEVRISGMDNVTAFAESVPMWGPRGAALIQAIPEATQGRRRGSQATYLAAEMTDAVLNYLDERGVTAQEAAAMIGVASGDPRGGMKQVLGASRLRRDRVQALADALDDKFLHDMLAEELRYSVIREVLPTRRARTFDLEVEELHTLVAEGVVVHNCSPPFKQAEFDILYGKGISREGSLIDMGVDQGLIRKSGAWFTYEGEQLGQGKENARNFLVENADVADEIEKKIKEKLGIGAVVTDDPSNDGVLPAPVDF
Test: Fluorescence Cell-Free Homogeneous Dose Retest to Identify Inhibitors of RecA-Intein Splicing Activity. [Related pubchem assays (depositor defined):AID2097, AID2223, AID489010, AID492950]
Format: functional
Calls of active or inactive are those of the source.
Would you kindly list EC50 for each of these compounds?

INSERT INTO results (molecule_smiles, experimental_readout, observed_measurement) VALUES
  ('N#C/C(=C\c1ccc(O)c([N+](=O)[O-])c1)c1nc2ccccc2s1', 'EC50', '4.58 µM (active)'),
  ('O=C(Oc1ccc(Br)cc1C(=S)N1CCOCC1)c1cccc([N+](=O)[O-])c1', 'EC50', '23.1 µM (active)'),
  ('CCN(CC)c1ccc(/C=N/Nc2nc(C)cc(O)n2)c(O)c1', 'EC50', '28 µM (active)');

Return reported EC50 values for all items listed beneath this line.
1. CC(C)CS(=O)(=O)C1=NN2C(=N)/C(=C\c3ccc(OC(=O)c4ccco4)cc3)C(=O)N=C2S1
2. Cc1noc2ncnc(Sc3ccc(Br)cc3)c12
3. C=CCn1c(-c2cccnc2Cl)nc2ccccc21

["14.4 µM (active)", "16.2 µM (active)", "> 380 µM (inactive)"]
